Assignment: determine reported Kd for the given molecules.
Report only the number, with the unit µM understood.

Tell me its Kd on Serine/threonine-protein kinase 32B (Homo sapiens, UniProt Q9NY57): `CCOc1cc2ncc(C#N)c(Nc3ccc(F)c(Cl)c3)c2cc1NC(=O)/C=C/CN(C)C`
Sequence (Q9NY57 whole entry): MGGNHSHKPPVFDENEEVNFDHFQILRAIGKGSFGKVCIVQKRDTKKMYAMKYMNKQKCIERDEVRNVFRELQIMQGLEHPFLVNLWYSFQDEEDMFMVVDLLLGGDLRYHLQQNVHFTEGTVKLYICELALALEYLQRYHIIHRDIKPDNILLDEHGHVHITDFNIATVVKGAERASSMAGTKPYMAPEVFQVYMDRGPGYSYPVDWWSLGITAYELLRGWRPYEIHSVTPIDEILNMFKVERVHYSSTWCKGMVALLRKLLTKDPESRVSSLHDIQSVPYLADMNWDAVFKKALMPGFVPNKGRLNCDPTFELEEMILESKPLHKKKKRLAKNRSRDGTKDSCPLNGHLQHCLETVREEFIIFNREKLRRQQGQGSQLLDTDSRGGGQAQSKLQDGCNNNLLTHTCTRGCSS
6

Tell me its Kd on Serine/threonine-protein kinase 32B (Homo sapiens, UniProt Q9NY57): `Oc1ccc(-c2nc(-c3ccncc3)c(-c3ccc(F)cc3)[nH]2)cc1`
4.9

* * *

# Kd measurements, system: Phosphatidylinositol 4-phosphate 5-kinase type-1 alpha (Homo sapiens, UniProt Q99755)
# Sequence (Q99755 whole entry): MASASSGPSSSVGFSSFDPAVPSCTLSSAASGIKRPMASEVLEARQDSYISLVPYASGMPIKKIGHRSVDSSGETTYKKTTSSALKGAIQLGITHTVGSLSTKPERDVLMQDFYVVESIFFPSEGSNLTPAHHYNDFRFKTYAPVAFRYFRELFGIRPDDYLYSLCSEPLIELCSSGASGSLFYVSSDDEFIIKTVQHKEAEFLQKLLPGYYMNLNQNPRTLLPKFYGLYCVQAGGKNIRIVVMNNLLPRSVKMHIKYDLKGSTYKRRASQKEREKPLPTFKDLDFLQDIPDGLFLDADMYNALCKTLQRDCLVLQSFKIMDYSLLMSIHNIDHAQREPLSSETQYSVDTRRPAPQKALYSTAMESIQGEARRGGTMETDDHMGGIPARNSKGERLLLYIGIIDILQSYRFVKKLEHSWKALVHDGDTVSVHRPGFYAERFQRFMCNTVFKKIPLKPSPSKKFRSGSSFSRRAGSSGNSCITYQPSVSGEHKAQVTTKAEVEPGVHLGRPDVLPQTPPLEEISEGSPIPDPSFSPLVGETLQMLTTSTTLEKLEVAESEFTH

Please list Kd recorded for the compound `NC(=O)c1ccc(-c2nc(-c3ccc4c(c3)OCO4)c(-c3ccccn3)[nH]2)cc1`
> 10 µM

Please list Kd recorded for the compound `CCOc1cc2ncc(C#N)c(Nc3ccc(F)c(Cl)c3)c2cc1NC(=O)/C=C/CN(C)C`
> 10 µM

Please list Kd recorded for the compound `Nc1nc(Nc2ccc(S(N)(=O)=O)cc2)nn1C(=O)c1c(F)cccc1F`
9.2 µM

Please list Kd recorded for the compound `COCC(=O)NC/C=C/c1ccc2ncnc(Nc3ccc(Oc4ccc(C)nc4)c(C)c3)c2c1`
> 10 µM

Please list Kd recorded for the compound `Oc1ccc(-c2nc(-c3ccncc3)c(-c3ccc(F)cc3)[nH]2)cc1`
> 10 µM

Data credit: ChEMBL document CHEMBL1150977
